# Experimental Details: Cytotoxicity against human MT4 cells incubated for 5 days by Cell Titer Glo assay
# Assay type: toxicity, cell-based
# Reported Conditions: time 5 day
Property Measured: CC50 at 120 h (µM)
Express your answer in µM, writing the number without its unit.

Quick one: CC50 at 120 h of COC(=O)C(C)N[P@](=O)(OC[C@@]1(C#N)O[C@@H](c2ccc3c(N)ncnn23)[C@H](OC(C)=O)[C@@H]1OC(C)=O)Oc1ccccc1 (stereo partly specified) ? 10.6

Look up CC50 at 120 h: CC(C)C(=O)O[C@H]1[C@H](c2ccc3c(N)ncnn23)O[C@](C#N)(CO[P@@](=O)(N[C@@H](C)C(=O)OC2CCCCC2)Oc2ccccc2)[C@H]1OC(=O)C(C)C 8.7

# query: CC50 at 120 h of entry CCC(=O)O[C@H]1[C@H](c2ccc3c(N)ncnn23)O[C@](C#N)(CO[P@@](=O)(NC(C)C(=O)OC)Oc2ccccc2)[C@H]1OC(=O)CC (stereo partly specified) 3.33

Query: CC50 at 120 h; subject: CC(=O)O[C@H]1[C@H](c2ccc3c(N)ncnn23)O[C@](C#N)(CO[P@@](=O)(N[C@@H](C)C(=O)OC2CCCCC2)Oc2ccccc2)[C@H]1OC(C)=O 29.8

Suppose we examine the compound CCOC(=O)[C@H](C)N[P@](=O)(OC[C@@]1(C#N)O[C@@H](c2ccc3c(N)ncnn23)[C@H](O)[C@@H]1O)Oc1ccccc1 ; what CC50 at 120 h value has been reported? 28.7

Which CC50 at 120 h value is on record for CCCOC(=O)[C@H](C)N[P@](=O)(OC[C@@]1(C#N)O[C@@H](c2ccc3c(N)ncnn23)[C@H](OC(=O)C(C)C)[C@@H]1OC(=O)C(C)C)Oc1ccccc1 ? 4.92

Bench note: what CC50 at 120 h did CCC(CC)OC(=O)[C@H](C)NP(=O)(OC[C@@]1(C#N)O[C@@H](c2ccc3c(N)ncnn23)[C@H](O)[C@@H]1O)Oc1ccccc1 (stereo partly specified) show? 40.1

====

# System: Respiratory syncytial virus
# Experimental Details: Antiviral activity against RSV A2 infected in human HEp-2 cells incubated for 4 days by Cell Titer Glo assay
# Assay type: functional, organism-based
# Reported Conditions: A2, HEp-2, 96 h
EC50 vs 100 nM: less than gives 1 (yes); not less than gives 0 (no).

I'd appreciate it if you could check whether Nc1ncnn2c([C@@H]3O[C@@](CO)(CCl)[C@@H](O)[C@H]3O)ccc12 has EC50 smaller than 100 nM. 0 (no)

# TODO verify EC50 < 100 nM strictly for this molecule: CC(C)C(=O)O[C@H]1[C@H](c2ccc3c(N)ncnn23)O[C@](C#N)(CO[P@@](=O)(N[C@@H](C)C(=O)OC2CCCCC2)Oc2ccccc2)[C@H]1OC(=O)C(C)C 1 (yes)

In the record for CCC(CC)OC(=O)[C@H](C)NP(=O)(OC[C@@]1(C#N)O[C@@H](c2ccc3c(N)ncnn23)[C@H](O)[C@@H]1O)Oc1ccccc1 (some centres not stated) , is EC50 less than 100 nM? 1 (yes)

Please let me know if CC(=O)O[C@H]1[C@H](c2ccc3c(N)ncnn23)O[C@](C#N)(CO[P@@](=O)(N[C@@H](C)C(=O)OC2CCCCC2)Oc2ccccc2)[C@H]1OC(C)=O shows EC50 below 100 nM. 0 (no)

Dear colleague, could you confirm whether EC50 of COC(=O)[C@H](C)N[P@](=O)(OC[C@@]1(C#N)O[C@@H](c2ccc3c(N)ncnn23)[C@H](O)[C@@H]1O)Oc1ccccc1 falls below 100 nM? Thanks. 0 (no)

A record lists CC(C)OC(=O)[C@H](C)N[P@](=O)(OC[C@@]1(C#N)O[C@@H](c2ccc3c(N)ncnn23)[C@H](O)[C@@H]1O)Oc1ccccc1 . Is its EC50 below 100 nM? 0 (no)

Decide: EC50 of COC(=O)C(C)N[P@](=O)(OC[C@@]1(C#N)O[C@@H](c2ccc3c(N)ncnn23)[C@H](OC(C)=O)[C@@H]1OC(C)=O)Oc1ccccc1 (some centres not stated) strictly below 100 nM? 0 (no)

====

# Experimental Details: Selectivity index, ratio of CC50 for human HEp-2 cells to EC50 for RSV A2 infected in human HEp-2 cells
# Assay type: toxicity, cell-based
# Reported Conditions: read-out: Ratio CC50/EC50
Property Measured: selectivity ratio
I'd appreciate a reply containing only the number, no unit.

Could you tell me which selectivity ratio is on file for COC(=O)[C@H](C)N[P@](=O)(OC[C@@]1(C#N)O[C@@H](c2ccc3c(N)ncnn23)[C@H](OC(=O)C(C)C)[C@@H]1OC(=O)C(C)C)Oc1ccccc1 ? 500

====

# Experimental Details: Cmax in Cynomolgous monkey at lung-deposited dose of 4 mg/kg, IT measured after 24 hrs by LC-MS/MS analysis
# Format: ADME, organism-based, Macaca fascicularis
# Reported Conditions: cynomolgus monkey, in vivo
Property Measured: Cmax (nM)
# number only, unit nM dropped from output

I am curious: what Cmax value has been reported for COC(=O)[C@H](C)N[P@](=O)(OC[C@@]1(C#N)O[C@@H](c2ccc3c(N)ncnn23)[C@H](OC(=O)C(C)C)[C@@H]1OC(=O)C(C)C)Oc1ccccc1 ? 620

====

# Experimental Details: Half life in Cynomolgous monkey at 5 mg/kg, iv measured after 30 mins by LC-MS/MS analysis
# Assay type: ADME, organism-based, Macaca fascicularis
# Reported Conditions: cynomolgus monkey, in vivo
Property Measured: half-life (min)
Response body: numeric value in min, unit text excluded.

Form field: reported half-life of COC(=O)[C@H](C)N[P@](=O)(OC[C@@]1(C#N)O[C@@H](c2ccc3c(N)ncnn23)[C@H](OC(=O)C(C)C)[C@@H]1OC(=O)C(C)C)Oc1ccccc1 20.4

====

# Experimental Details: Cmax in Cynomolgous monkey at 5 mg/kg, iv measured after 30 mins by LC-MS/MS analysis
# Type: ADME, organism-based, Macaca fascicularis
# Reported Conditions: cynomolgus monkey, in vivo
Property Measured: Cmax
The reply must contain the numeric value and, after it, the unit.

Quick one: Cmax of COC(=O)[C@H](C)N[P@](=O)(OC[C@@]1(C#N)O[C@@H](c2ccc3c(N)ncnn23)[C@H](OC(=O)C(C)C)[C@@H]1OC(=O)C(C)C)Oc1ccccc1 ? 1990 nM

====

# Experimental Details: Cytotoxicity against Normal human bronchial epithelial cells
# Format: toxicity, cell-based, Epithelial cell
Property Measured: CC50 (µM)
Quick note: give the figure in µM, leave out the unit.

Any idea what CC50 was measured for COC(=O)[C@H](C)N[P@](=O)(OC[C@@]1(C#N)O[C@@H](c2ccc3c(N)ncnn23)[C@H](OC(=O)C(C)C)[C@@H]1OC(=O)C(C)C)Oc1ccccc1 ? 8.3

====

# Tested on: Respiratory syncytial virus
# Experimental Details: Antiviral activity against Fluc-fused RSV A2 infected in D-HBE-COPD cells incubated for 3 days by ONE Glo luciferase assay
# Assay type: functional, organism-based
# Reported Conditions: human respiratory syncytial virus, 72 h
pEC50: −log10 of the molar value.
Property Measured: pEC50

Entry COC(=O)[C@H](C)N[P@](=O)(OC[C@@]1(C#N)O[C@@H](c2ccc3c(N)ncnn23)[C@H](OC(=O)C(C)C)[C@@H]1OC(=O)C(C)C)Oc1ccccc1 : reported pEC50 = ? > 8.15

====

# Experimental Details: Cmax in African green monkey at lung-deposited dose of 5.9 mg/kg, IT measured after 24 hrs by LC-MS/MS analysis
# Assay type: ADME, organism-based
# Reported Conditions: chlorocebus aethiops, in vivo
Property Measured: Cmax (nM)
Entry rule: numbers only, all in nM.

I have this molecule here, COC(=O)[C@H](C)N[P@](=O)(OC[C@@]1(C#N)O[C@@H](c2ccc3c(N)ncnn23)[C@H](OC(=O)C(C)C)[C@@H]1OC(=O)C(C)C)Oc1ccccc1 , and I need its recorded Cmax. 610

====

# Experimental Details: Drug concentration in lung of Cynomolgous monkey measured per gram of tissue at 5 mg/kg, iv measured after 24 hrs by LC-MS/MS analysis
# Format: ADME, organism-based, Macaca fascicularis
# Reported Conditions: cynomolgus monkey, in vivo
Property Measured: Drug uptake (nmol/g)
Respond numerically; units are nmol/g and should not be typed.

I have this compound here, COC(=O)[C@H](C)N[P@](=O)(OC[C@@]1(C#N)O[C@@H](c2ccc3c(N)ncnn23)[C@H](OC(=O)C(C)C)[C@@H]1OC(=O)C(C)C)Oc1ccccc1 , and I need its recorded Drug uptake. 4.28

====

# Experimental Details: Cytotoxicity against human RD cells by MTS assay
# Type: toxicity, cell-based
Property Measured: CC50

Sample COC(=O)[C@H](C)N[P@](=O)(OC[C@@]1(C#N)O[C@@H](c2ccc3c(N)ncnn23)[C@H](OC(=O)C(C)C)[C@@H]1OC(=O)C(C)C)Oc1ccccc1 — what was its CC50? > 2000 nM

====

# Experimental Details: AUC (0 to 24 hrs) in African green monkey at lung-deposited dose of 5.9 mg/kg, IT measured after 24 hrs by LC-MS/MS analysis
# Format: ADME, organism-based
# Reported Conditions: chlorocebus aethiops, in vivo
Property Measured: AUC(0-t) at 24 h (µM·h)
Response body: numeric value in µM·h, unit text excluded.

// query AUC(0-t) at 24 h value for entry COC(=O)[C@H](C)N[P@](=O)(OC[C@@]1(C#N)O[C@@H](c2ccc3c(N)ncnn23)[C@H](OC(=O)C(C)C)[C@@H]1OC(=O)C(C)C)Oc1ccccc1 1.74
